- System: generation of reactive oxygen species in the murine kidney membrane
- measurement.description: Lucigenin-based assay of reactive oxygen species generation in isolated kidney membrane
- Format: biochemical, rat (Rattus norvegicus)
- assay.context: 37° C. for 10 minutes, luminescence, compound 40, 10, 2.5, 0.625, 0 μM, read-out: EC50 (inhibition of generation of reactive oxygen species)
readout: EC50 (nM)

Before answering, review these 2 worked examples.
[
  {
    "smiles.data": "CC(C)[Si](Oc1cc(-c2ccc(I)cc2)nn1-c1ccccn1)(C(C)C)C(C)C",
    "unit.abbreviation": "nM",
    "EC50": 1500
  },
  {
    "smiles.data": "Oc1cc(-c2cccc(-c3ccccc3)c2)nn1-c1ccccn1",
    "unit.abbreviation": "nM",
    "EC50": 400
  }
]

A. Oc1cc(-c2ccc(I)cc2)nn1-c1ncccn1
B. CCCc1c(-c2ccccc2)nn(-c2ccccn2)c1O
C. Oc1cc(-c2ccc(-c3ccc(Br)cc3)cc2)nn1-c1ccccn1
D. Oc1cc(-c2ccc(-c3ccccc3Oc3ccccc3)cc2)nn1-c1ccccn1
E. CC(C)(C)OC(=O)Oc1cc(-c2ccc(-c3ccccc3)cc2)nn1-c1ncccn1
# desc sort on EC50 across 5 molecules List the labels in the requested order.
B, C, E, A, D
